Test system Staphylococcus aureus A-5278, MIC listed for each of the compounds.

[
  {
    "Smiles Record": "CC[C@H]1OC(=O)[C@H](C)C(=O)[C@H](C)[C@@H](O[C@@H]2O[C@H](C)C[C@H](N(C)C)[C@H]2O)[C@](C)(OC/C=C/c2ccc(-c3ccsc3)s2)C[C@@H](C)C(=O)[C@H](C)[C@H]2NC(=O)O[C@@]21C",
    "MIC": "100 µg/mL"
  },
  {
    "Smiles Record": "CC[C@H]1OC(=O)[C@H](C)C(=O)[C@H](C)[C@@H](O[C@@H]2O[C@H](C)C[C@H](N(C)C)[C@H]2O)[C@](C)(OC/C=C/c2nc(-c3cccnc3)cs2)C[C@@H](C)C(=O)[C@H](C)[C@H]2NC(=O)O[C@@]21C",
    "MIC": "> 100 µg/mL"
  },
  {
    "Smiles Record": "CC[C@H]1OC(=O)[C@H](C)C(=O)[C@H](C)[C@@H](O[C@@H]2O[C@H](C)C[C@H](N(C)C)[C@H]2O)[C@](C)(OC/C=C/c2cnc(-c3cncs3)s2)C[C@@H](C)C(=O)[C@H](C)[C@H]2NC(=O)O[C@@]21C",
    "MIC": "> 100 µg/mL"
  },
  {
    "Smiles Record": "CC[C@H]1OC(=O)[C@H](C)C(=O)[C@H](C)[C@@H](O[C@@H]2O[C@H](C)C[C@H](N(C)C)[C@H]2O)[C@](C)(OCC#Cc2ccc(-c3cncc(C(=O)NN(C)C)c3)s2)C[C@@H](C)C(=O)[C@H](C)[C@H]2NC(=O)O[C@@]21C",
    "MIC": "> 100 µg/mL"
  },
  {
    "Smiles Record": "CC[C@H]1OC(=O)[C@H](C)C(=O)[C@H](C)[C@@H](O[C@@H]2O[C@H](C)C[C@H](N(C)C)[C@H]2O)[C@](C)(OC/C=C/c2ccc(-c3ccncn3)s2)C[C@@H](C)C(=O)[C@H](C)[C@H]2NC(=O)O[C@@]21C",
    "MIC": "> 100 µg/mL"
  },
  {
    "Smiles Record": "CC[C@H]1OC(=O)[C@H](C)C(=O)[C@H](C)[C@@H](O[C@@H]2O[C@H](C)C[C@H](N(C)C)[C@H]2O)[C@](C)(OC/C=C/c2cncc(-c3cnc4ccccc4c3)c2)C[C@@H](C)C(=O)[C@H](C)[C@H]2NC(=O)O[C@@]21C",
    "MIC": "> 100 µg/mL"
  },
  {
    "Smiles Record": "CC[C@H]1OC(=O)[C@H](C)C(=O)[C@H](C)[C@@H](O[C@@H]2O[C@H](C)C[C@H](N(C)C)[C@H]2O)[C@](C)(OC/C=C/c2ccc3ncc(Br)cc3c2)C[C@@H](C)C(=O)[C@H](C)[C@H]2NC(=O)O[C@@]21C",
    "MIC": "100 µg/mL"
  },
  {
    "Smiles Record": "CC[C@H]1OC(=O)[C@H](C)C(=O)[C@H](C)[C@@H](O[C@@H]2O[C@H](C)C[C@H](N(C)C)[C@H]2O)[C@](C)(OC/C=C/c2ccc(-c3cncnc3)s2)C[C@@H](C)C(=O)[C@H](C)[C@H]2NC(=O)O[C@@]21C",
    "MIC": "> 100 µg/mL"
  }
]

Ref: patent US6054435A
